# testTarget: Nuclear hormone receptor DAF-12 (Heterodera glycines)
# experimentalProtocol: hgDAF-12 reporter activation EC50 – cell-based, luminescence, HEK293, dose response (AID 743059);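 also: agonist potency for compounds that raise hgDAF-12 reporter luminescence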
# conditionNotes: HEK293 hgDAF-12 reporter, luciferase luminescence
Active and inactive are the calls of the source.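 The calls were made as follows: active = EC50 at or below 10 µM; inactive = EC50 above 10 µM.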
measuredAttribute: EC50

- Nc1ccc2c(c1)Cc1cc(N)c(Cl)cc1-2: > 67.4 µM (inactive)
- O=C(N/N=C/c1cccs1)c1n[nH]c2c1CCC2: > 67.5 µM (inactive)
- Cc1cc(C)nc(-n2nc(C)c(Sc3ccc(F)cc3)c2N)n1: > 67.5 µM (inactive)
- Cc1ccnc(NC(=O)/C=C/c2cccs2)c1: > 67.6 µM (inactive)

Where these numbers come from: PubChem BioAssay AID743059
